# measurement.target: Lytic switch protein BZLF1 (Epstein-Barr virus (strain B95-8)) (UniProt P03206)
# Sequence (P03206 whole entry, looked up): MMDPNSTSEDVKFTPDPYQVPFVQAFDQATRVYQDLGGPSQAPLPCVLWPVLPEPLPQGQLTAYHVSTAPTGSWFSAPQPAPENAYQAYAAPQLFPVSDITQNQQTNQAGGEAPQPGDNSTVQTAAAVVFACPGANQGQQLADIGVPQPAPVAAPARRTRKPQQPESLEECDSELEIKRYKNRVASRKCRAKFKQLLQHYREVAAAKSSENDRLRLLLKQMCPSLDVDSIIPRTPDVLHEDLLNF
# measurement.description: Zta-DNA interaction blockers, Epstein-Barr virus – biochemical, fluorescence polarization, single concentration, counter-screen for EBNA-1 inhibitor project, primary screen (AID 2234)
# applied.conditions: ZTA-DNA binding, at 11 µM, active compounds read high
Screen size: about 320,000 compounds; about 480 (0.15%) were called active. What follows is part of a selection rich in actives, with near analogues and random picks from the rest.
observed.property: inhibition (%)

INSERT INTO assay_data (compound, observed_property, obs_value) VALUES
  ('COc1ccc(N2CCN(C(=O)CN3C(=O)COc4ccccc43)CC2)cc1', 'inhibition', 49.2),
  ('Cc1ccc2c(c1)N(CC(=O)N1CCOCC1)C(=O)CO2', 'inhibition', -24.9),
  ('O=C(c1cc(S(=O)(=O)N2CCOCC2)ccc1Cl)N1CCOCC1', 'inhibition', 17.7),
  ('CC(C)CNC(=O)C(=O)Nc1ccc(N(C)C)cc1', 'inhibition', -14.2),
  ('Cc1ccc2c(C)c(C(=O)N3CCN(c4ccncc4)CC3)oc2c1C', 'inhibition', 1.76),
  ('O=C(OCC1OC(Oc2ccc(O)cc2)C(O)C(O)C1O)c1ccccc1 (stereo not drawn)', 'inhibition', -3.45),
  ('CC12CCC(=O)N1C(C(=O)NCCN1C(=O)S/C(=C\c3ccccc3F)C1=O)CS2 (stereo not drawn)', 'inhibition', -4.27),
  ('COC(=O)C1CCCCN1C(=O)c1ccc(OC2CCN(C(C)=O)CC2)c(OC)c1 (stereo not drawn)', 'inhibition', 5.86),
  ('COc1ccccc1C(=O)Nc1ccc(OCC(=O)N2CCCCC2)cc1', 'inhibition', -10.8),
  ('CCOC(=O)CC(NC(=O)C1c2ccccc2Oc2ccccc21)c1ccc(C)cc1 (stereo not drawn)', 'inhibition', 2.93),
  ('CN(C(=O)CN1C(=O)CCSc2ccc(S(=O)(=O)N3CCCC3)cc21)c1ccccc1', 'inhibition', 4.65),
  ('COc1ccc(N2CCN(CCNC(=O)CCN3C(=O)COc4ccccc43)CC2)cc1', 'inhibition', 3.46),
  ('O=C(COC(=O)c1cc(=O)[nH]c2ccccc12)NCc1cccc(Cl)c1', 'inhibition', -4.76),
  ('CC(C)C(=O)Nc1nnc(SCC(=O)N2C(C)CCCC2C)s1 (stereo not drawn)', 'inhibition', -5.72),
  ('COc1ccc(-c2nnc(SC(=O)N3c4ccccc4Sc4ccccc43)o2)cc1', 'inhibition', 6.65),
  ('COc1ccc(C(=O)NC2CC2)cc1OC1CCN(C/C=C/c2ccccc2)CC1', 'inhibition', -17.4),
  ('Cc1c(C(=O)c2cccc([N+](=O)[O-])c2)c2ccccn2c1CCC#N', 'inhibition', -12.6),
  ('CCN(CC)S(=O)(=O)c1ccc(C(=O)N2CCN(C3=NS(=O)(=O)c4ccccc43)CC2)cc1', 'inhibition', -8.64),
  ('O=C(NCc1ccccc1CN1CCCC1)c1cccc(S(=O)(=O)Nc2ccc(F)cc2)c1', 'inhibition', 3.93),
  ('COC(=O)c1ccc(NC(=O)CSc2nnc(Cc3cccn3C)n2-c2ccc(F)cc2)cc1', 'inhibition', 11.4),
  ('Cc1cc(C(=O)OCC(=O)Nc2ccccc2Cl)c(C)o1', 'inhibition', -1),
  ('COc1ccc(-c2c(C)nn3c(N4CCC(C(=O)N5CCCCC5)CC4)cc(C)nc23)cc1OC', 'inhibition', 6.7),
  ('CN1/C(=c2/s/c(=C3/C(=O)N(c4ccccc4)NC3=Nc3ccccc3)n(C)c2=O)C(C)(C)c2ccccc21', 'inhibition', 7.42),
  ('COC(=O)Nc1ccc(S(=O)(=O)N(C)CC(F)(F)C(F)F)cc1', 'inhibition', 9.51),
  ('O=C(CCCC(=O)N(CC(=O)NC1CCCC1)Cc1ccccc1Cl)Nc1ccccn1', 'inhibition', 2.7),
  ('COc1ccc(-c2nonc2NC(=O)c2oc3ccc(F)cc3c2C)cc1OC', 'inhibition', -1.66),
  ('CCOc1cc(C)c(S(=O)(=O)NCc2ccccn2)cc1C', 'inhibition', 12.5),
  ('CCC1Oc2ccccc2N(CC(=O)NCCCN2CCN(CC)CC2)C1=O (stereo not drawn)', 'inhibition', -3.45),
  ('CCc1cc(=O)oc2c(C)c(OCC(=O)N3CC[C@@]4(O)CCCC[C@H]4C3)ccc12', 'inhibition', -6.49),
  ('CCC(C)OC(=O)C(C)Oc1ccc(-c2ccccc2)cc1 (stereo not drawn)', 'inhibition', -16.6),
  ('O=C(OCC1O[C@@H](OC(=O)c2cc(O)c(O)c(O)c2)[C@@H](OC(=O)c2cc(O)c(O)c(O)c2)[C@@H](OC(=O)c2cc(O)c(O)c(O)c2)[C@@H]1OC(=O)c1cc(O)c(O)c(O)c1)c1cc(O)c(O)c(O)c1 (stereo partly drawn)', 'inhibition', 56.7),
  ('Cc1ccc(S(=O)(=O)NCc2ccc(C(=O)NC3CCC(C)CC3)cc2)cc1 (stereo not drawn)', 'inhibition', 0.09),
  ('Cc1ccc(Cc2nnc(SCC(=O)Nc3ccccc3C)[nH]c2=O)cc1', 'inhibition', 0.83);
